System: HTT
Test: RT-qPCR splicing assay, HTT AJ/CJ mRNA
Format: cell-based, human
Conditions: Homo sapiens, 24 h, decrease in canonical junction mRNA, A673 or K562 cells
Metric name: IC50

Some solved entries appear below for comparison.
Hello, I am looking for reported IC50 with HTT for CN(c1ccc2c(n1)OCc1cc(-n3cccn3)ccc1-2)[C@@H]1C[C@H]2CC[C@@H](C1)N2 [Compound 149] . Could you help?
100 to 1000 nM

Hello, I am looking for reported IC50 with HTT for COc1cc(-c2ccc3c(c2)COc2nc(N(C)[C@@H]4C[C@H]5CC[C@@H](C4)N5)ccc2-3)cnn1 [Compound 159] . Could you help?
< 100 nM

Hello, I am looking for reported IC50 with HTT for COc1cc(-c2ccc3c(c2)COc2nc(N4CCN[C@@H](C(C)C)C4)ccc2-3)cnn1 [Compound 303] . Could you help?
< 100 nM

---
Hello, I am looking for reported IC50 with HTT for COc1cc(-c2ccc3c(c2)COc2nc(N4CCC(NC5CCC5)C4)ccc2-3)cnn1 (stereo not shown) [Compound 280] . Could you help?
100 to 1000 nM

Hello, I am looking for reported IC50 with HTT for FC1(F)CC2CC(Nc3ccc4c(n3)OCc3cc(-n5nccn5)ccc3-4)CC1N2 (stereo not shown) [Compound 238] . Could you help?
100 to 1000 nM

Hello, I am looking for reported IC50 with HTT for CN(c1ccc2c(n1)CCOc1cc(-c3cn[nH]c3)ccc1-2)[C@@H]1C[C@H]2CC[C@@H](C1)N2 [Compound 127] . Could you help?
> 10000 nM

Hello, I am looking for reported IC50 with HTT for COc1cc(-c2ccc3c(c2)COc2nc(N4CCC(C)(NC(C)C)C4)ccc2-3)cnn1 (stereo not shown) [Compound 309] . Could you help?
< 100 nM

Hello, I am looking for reported IC50 with HTT for CN(c1ccc2c(n1)CCOc1cc(-n3cccn3)ccc1-2)C1CC(C)(C)NC(C)(C)C1 [Compound 129] . Could you help?
> 10000 nM

Hello, I am looking for reported IC50 with HTT for CN(c1ccc2c(c1)CCOc1cc(-n3cccn3)ccc1-2)[C@@H]1C[C@H]2CC[C@@H](C1)N2 [Compound 113] . Could you help?
> 10000 nM

Hello, I am looking for reported IC50 with HTT for c1cc2c(cc1-c1cn[nH]c1)COc1nc(N3CCC34CCCNC4)ccc1-2 (stereo not shown) [Compound 210] . Could you help?
> 10000 nM

Hello, I am looking for reported IC50 with HTT for COc1cc(-c2ccc3c(c2)COc2nc(N(C)[C@H]4C[C@H]5COC[C@@H](C4)N5)ccc2-3)cnn1 [Compound 246] . Could you help?
> 10000 nM

Hello, I am looking for reported IC50 with HTT for CN(c1ccc2c(n1)OCCc1cc(-c3cn[nH]c3)ccc1-2)C1CC(C)(C)NC(C)(C)C1 [Compound 145] . Could you help?
> 10000 nM

Hello, I am looking for reported IC50 with HTT for COc1cc(-c2ccc3c(c2)COc2nc(O[C@@H]4C[C@H]5CC[C@@H](C4)N5)ncc2-3)cnn1 [Compound 298] . Could you help?
100 to 1000 nM

Hello, I am looking for reported IC50 with HTT for c1cnn(-c2ccc3c(c2)COc2nc(N(C4CC4)[C@@H]4C[C@H]5CCC[C@@H](C4)N5)ccc2-3)c1 [Compound 203] . Could you help?
1000 to 10000 nM
